Just for reference, PubChem BioAssay (NCI) is where these values come from.

test system: SN12C renal; assay: NCI-60 one-dose screen, 48 h; settings: 10 µM
The panel holds about 83,000 compounds, 20% with a hit somewhere; the sample as a whole holds those more often. Active and inactive are the calls of the source. How the source made its calls: active means growth percent below 10; inactive means the rest.
Response enum: active, inactive

input: Recorded test call requested for `O=C(Nc1cccc(Cl)c1)Nc1cc2ncncc2cc1OCc1cccc(F)c1`
output: inactive

input: Recorded test call requested for `COc1ccc(S(=O)(=O)Nc2cc(/C=C\c3cc(OC)c(OC)c(OC)c3)ccc2OC)cc1`
output: inactive

input: Recorded test call requested for `O=C(NCCCl)c1cc(Cl)cc(Cl)c1`
output: inactive

input: Recorded test call requested for `FC(F)(F)c1ccc(-c2cnc(Cl)nc2NC2CCCCCC2)cc1`
output: inactive

input: Recorded test call requested for `NC(N)=NS(=O)(=O)c1ccc(Nc2ccc3nnc(-c4ccncc4)n3n2)cc1`
output: inactive

input: Recorded test call requested for `Oc1cc(O)c(Br)cc1Br`
output: inactive

input: Recorded test call requested for `COc1cc(NS(C)(=O)=O)ccc1Nc1c2ccc(Cl)cc2nc2c(OC)cccc12`
output: active

input: Recorded test call requested for `CCOc1nc(-c2ccccc2)cc2c(O)c(C(=O)NCCCO)[nH]c(=O)c12`
output: inactive

input: Recorded test call requested for COc1ccc(C2C=C(c3ccc(Cl)c(Cl)c3)N=C3SC(C)=CN32)cc1 (stereo unspecified)
output: inactive

input: Recorded test call requested for `COc1cccc2c1O/C(=C\c1ccc([N+](=O)[O-])s1)C2=O`
output: inactive

input: Recorded test call requested for `COc1ccc(-c2cc(/C=C3\C(=O)Nc4cc(Cl)ccc43)[nH]n2)cc1OC`
output: inactive

input: Recorded test call requested for `Cc1ccccc1[P+](Cc1ccccc1)(c1ccccc1)c1ccccc1`
output: inactive

input: Recorded test call requested for `COc1ccc(C(=O)n2nc(CC(=O)NCc3ccccc3)nc2N)cc1`
output: inactive

input: Recorded test call requested for `O=C(Nc1ccc(Oc2ccc(Nc3nc4ccccc4s3)cc2)cc1)Nc1ccc(Cl)c(Cl)c1`
output: inactive

input: Recorded test call requested for `COc1cc2nc(Sc3sc(N)nc3C)n(-c3ccc(Oc4ccccc4)cc3)c(=O)c2cc1OC`
output: inactive

input: Recorded test call requested for `COc1ccc(-c2cc(=O)n(-c3nc4ccccc4[nH]3)[nH]2)cc1OC`
output: inactive

input: Recorded test call requested for `Nc1ccccc1NC(=O)CCCCCCC(=O)Nc1ccc2c(c1)/C(=C/c1ccc[nH]1)C(=O)N2`
output: inactive

input: Recorded test call requested for CCCCOCC(=O)NC(NP(=O)(N(C)C)N(C)C)C(Cl)(Cl)Cl (stereo unspecified)
output: inactive

input: Recorded test call requested for `O=C1c2cc(Cl)ccc2-c2c(O)cc(Cl)cc21`
output: inactive

input: Recorded test call requested for `COc1ccc(/C(=C/c2cc(OC)c(OC)cc2[N+](=O)[O-])C(=O)O)cc1`
output: inactive

input: Recorded test call requested for `COc1ccc(Cn2cc3c(c2-c2cc(OC)c(OC)c(OC)c2)CCc2cnoc2-3)cc1N`
output: inactive

---

tested on: NCI-H460 lung; assay: NCI-60 one-dose screen, 48 h (100 = growth as untreated, 0 = no growth, -100 = all killed); details: 10 µM
The panel holds about 83,000 compounds, 20% with a hit somewhere; the sample as a whole holds those more often.
Test Readout: growth (%)
Note: unit % is implicit; provide only the numeric part.

Sample `CS(=O)(=O)Nc1ccc(Nc2c3ccccc3nc3cc(Cl)ccc23)cc1` , system: NCI-H460 lung. Its growth is 8.44

Sample `Cc1ccc(C)c(S(=O)(=O)NC2c3ccccc3Oc3ccccc32)c1` , system: NCI-H460 lung. Its growth is 105

Sample `CC(C)c1ncc(CO)n1Cc1c(Cl)cccc1Cl` , system: NCI-H460 lung. Its growth is 103

Sample `O=S(=O)(NCCO)c1ccc(OCCOc2ccc(S(=O)(=O)NCCO)cc2)cc1` , system: NCI-H460 lung. Its growth is 111

Sample `FC(F)(F)c1ccc(-c2cnc(Cl)nc2NCc2cc(C(F)(F)F)cc(C(F)(F)F)c2)cc1` , system: NCI-H460 lung. Its growth is 3.48

Sample `C/C=C\COc1cc(C)c(Cl)cc1Cl` , system: NCI-H460 lung. Its growth is 103

Sample `O=C1CC[C@@H](C(=O)N[C@H]2CSSC[C@@H](C(=O)N/C=C/c3ccc(O)cc3)NC(=O)[C@H](Cc3ccccc3)NC(=O)[C@@H]3CCCN3C(=O)[C@@H]3CCCN3C2=O)N1` , system: NCI-H460 lung. Its growth is 102

Sample `COc1cc2nc(Sc3sc(N)nc3C)n(-c3ccc(Oc4ccccc4)cc3)c(=O)c2cc1OC` , system: NCI-H460 lung. Its growth is 99.5

Sample `C=C[C@]1(C)C=C2C(=O)[C@@]3(O)OC(=O)[C@@]4(CCCC(C)(C)[C@H]34)[C@@]2(O)CC1` , system: NCI-H460 lung. Its growth is 0.905

---

test system: OVCAR-5 ovarian; experiment: NCI-60 one-dose screen, 48 h (100 = growth as untreated, 0 = no growth, -100 = all killed); conditions: 10 µM
The panel holds about 83,000 compounds, 20% with a hit somewhere; the sample as a whole holds those more often.
Hi there, I'd appreciate the recorded growth for every entry that follows.
Note: unit % is implicit; provide only the numeric part.

Sample `Cc1ccc(-c2cc(C(=O)Nc3ccc(S(=O)(=O)N4CCCCC4)cc3)[nH]n2)c(O)c1` , system: OVCAR-5 ovarian. Its growth is 73.8

Sample `O=C(NNC(=O)c1ccncc1)Nc1ccc([N+](=O)[O-])cc1` , system: OVCAR-5 ovarian. Its growth is 108

Sample `COc1ccc(-c2nc3sc(-c4ccccc4)c(-c4ccccc4)n3c2/C=C/c2ccc(F)cc2)cc1` , system: OVCAR-5 ovarian. Its growth is 88.2

Sample CC1=CSC2=NC(c3ccc(Cl)c(Cl)c3)=CC(c3ccc(Cl)cc3)N12 (stereo not given) , system: OVCAR-5 ovarian. Its growth is 91.8

Sample O=C(c1ccccc1)C(Sc1ccccc1)c1ccccc1 (stereo not given) , system: OVCAR-5 ovarian. Its growth is 96

---

system: OVCAR-3 ovarian; test: NCI-60 one-dose screen, 48 h (100 = growth as untreated, 0 = no growth, -100 = all killed); details: 10 µM
The panel holds about 83,000 compounds, 20% with a hit somewhere; the sample as a whole holds those more often.
Hi there, I'd appreciate the recorded growth for every entry that follows.
Note: unit % is implicit; provide only the numeric part.

// recorded growth for `N#C/C(=C/c1cc([N+](=O)[O-])ccc1Cl)C(N)=O` : 104

// recorded growth for `Cc1cc(C#Cc2ccccc2)ccc1-n1c(/C=C/c2cc(O)ccc2O)nc2ccccc2c1=O` : -46.2

// recorded growth for COc1cccc2c1C(=O)c1c(O)c3c(c(O)c1C2=O)C[C@@](O)(C(=O)COC(=O)c1ccccc1)C[C@@H]3OC1CC(N)C(O)C(C)O1 (stereo not given in full) : -93.6

// recorded growth for `Cc1ccc(C(=O)O)c(N)c1C` : 104

// recorded growth for `COc1ccc(-c2csc(-c3cc(Cl)cc(Cl)c3Cl)n2)cc1` : 105

// recorded growth for `CNC(=O)c1cc(Oc2ccc(NC(=O)Nc3ccc(Cl)c(OC4CCCCC4)c3)c(F)c2)ccn1` : 33.8

// recorded growth for `O=c1cc(CSc2nnc(-c3ccccc3)n2-c2ccc(F)cc2)c2ccc3ccccc3c2o1` : 97.5

// recorded growth for `O=C(N/N=c1/ccoc2cccnc12)N1CCN(c2ncccn2)CC1` : 30.6

// recorded growth for `COc1cc(-c2c(C#N)c(N)n3c(nc4ccccc43)c2C#N)cc(Br)c1OC` : -36.6

// recorded growth for `CCc1ccc(-c2nnc(COc3ccc(-c4nc5ccc(C)cc5[nH]4)cc3OC)o2)cc1` : 41.7

// recorded growth for N/C(=N\O)c1cn(C2OC(CO)C(O)C2O)c2ncnc(N)c12 (stereo not given) : -18.3

// recorded growth for `O=C(CCl)N1c2ccccc2Sc2ccc3ccccc3c21` : -82.5

// recorded growth for `O=C(COc1ccc(Cl)cc1Cl)Oc1coc(CSc2nc3ccccc3s2)cc1=O` : 114

// recorded growth for COc1cccc2c1C(=O)c1c(O)c3c(c(O)c1C2=O)C[C@@](O)(C(=O)COC(=O)c1cccnc1)C[C@@H]3OC1CC(N)C(O)C(C)O1 (stereo not given in full) : -9.51

// recorded growth for CC(CNC(Cc1ccccc1)c1ccccc1)NC(Cc1ccccc1)c1ccccc1 (stereo not given) : 47.3

// recorded growth for NC1CCC(Nc2nc(NCc3ccc(-c4ccccc4O)nc3)c3ncn(C4CCCC4)c3n2)CC1 (stereo not given) : -6.34

// recorded growth for `CCc1c(C(=O)NCc2c(O)ccc3cccc(O)c23)[nH]c(C)c1C(C)=O` : 12.6

// recorded growth for `Cc1ccc(C)c2c1sc1nc3n[nH]c(N)c3c(=N)n12` : 114

// recorded growth for `Cc1nc(Nc2nc3ccccc3o2)nc(-c2cccc([N+](=O)[O-])c2)c1C(=O)Nc1ccc(F)c(Cl)c1` : 6.94

// recorded growth for `Cn1c([N+](=O)[O-])cnc1/C=C1\Oc2ccc(Br)cc2C1=O` : -37.3
